- assay target: TRPV1 (vanilloid receptor)
- Construct: native receptor in hemocytes
- method summary: radioligand saturation binding, rapid filtration
endpoint label: Kd (nM)

- substance smiles: "C=C(C)[C@]12C[C@@H](C)[C@@]34O[C@](Cc5ccccc5)(O[C@@H]1[C@@H]3C=C(COC(=O)Cc1ccc(O)c(OC)c1)C[C@]1(O)C(=O)C(C)=C[C@@H]41)O2"
  uom: "nM"
  reported value: 0.413
